Assay: Cytotoxicity against human ECA109 cells after 48 hrs by MTT assay
Format: functional, cell-based
Settings: ECa-109, 48 h
pIC50: −log10 of the molar value.
Property: pIC50; scope: individual compounds

stdin: Specify pIC50 for `COc1cc(-n2c(-c3ccc(Br)cc3)cn(C(C)=O)c2=O)cc(OC)c1OC` and stop.
stdout: 5.42

---

Test system: K562
Assay: Cytotoxicity against human K562 cells after 48 hrs by MTT assay
Assay type: functional, cell-based
Conditions: K562, 48 h
parameter.measured: IC50 (µM)
Entry rule: numbers only, all in µM.

Past entries and their recorded results:
compound: COc1ccc(-c2cn(C(=O)Nc3cc(OC)c(OC)c(OC)c3)c(=O)n2-c2cc(OC)c(OC)c(OC)c2)cc1N
parameter.measured: IC50
result.number: 5.8

compound: COc1ccc(-c2cn(C(C)=O)c(=O)n2-c2cc(OC)c(OC)c(OC)c2)cc1
parameter.measured: IC50
result.number: 0.2

stdin: # lookup: K562 IC50, key = CC(=O)O[C@@]12CO[C@@H]1C[C@H](O)[C@@]1(C)C(=O)[C@H](O)C3=C(C)[C@@H](OC(=O)[C@H](O)[C@@H](NC(=O)OC(C)(C)C)c4ccccc4)C[C@@](O)([C@@H](OC(=O)c4ccccc4)[C@H]21)C3(C)C [DOCETAXEL]
stdout: 8.5

stdin: Provide IC50, recorded with K562, of `COc1cc(-n2c(-c3ccc(Br)cc3)cn(C(C)=O)c2=O)cc(OC)c1OC`
stdout: 1

stdin: Name the value of IC50 reported for `COc1ccc(-c2cn(C(=O)Nc3cc(OC)c(OC)c(OC)c3)c(=O)n2-c2cc(OC)c(OC)c(OC)c2)cc1` when tested on K562.
stdout: 3.8

stdin: Jot down IC50 (K562) of `COc1ccc(-c2c[nH]c(=O)n2-c2cc(OC)c(OC)c(OC)c2)cc1N` .
stdout: 49.2

---

Test: Cytotoxicity against human ECA109 cells after 48 hrs by MTT assay
Format: functional, cell-based
Conditions: ECa-109, 48 h
parameter.measured: IC50

stdin: Using known records, supply IC50 for `COc1ccc(-c2cn(C(C)=O)c(=O)n2-c2cc(OC)c(OC)c(OC)c2)cc1N`
stdout: > 50 µM

stdin: Give the reported IC50 for this compound. `COc1ccc(-c2c[nH]c(=O)n2-c2cc(OC)c(OC)c(OC)c2)cc1OC`
stdout: > 50 µM

stdin: Assign IC50 to the following record: `COc1ccc(-c2c[nH]c(=O)n2-c2cc(OC)c(OC)c(OC)c2)cc1`
stdout: > 50 µM

stdin: Dear colleague, please send me the reported IC50 for `COc1cc(-n2c(-c3ccc(F)cc3F)cn(C(C)=O)c2=O)cc(OC)c1OC` when you can.
stdout: > 50 µM

stdin: Complete the entry with IC50 for `COc1ccc(-c2cn(C(=O)Nc3cc(OC)c(OC)c(OC)c3)c(=O)n2-c2cc(OC)c(OC)c(OC)c2)cc1N`
stdout: > 50 µM

---

System: Bel-7402
Experiment: Cytotoxicity against human BEL-7402 cells after 48 hrs by MTT assay
Assay type: functional, cell-based
Details: Bel-7402, 48 h
Below, each entry is listed alongside its reported log10 IC50.
Record value = log10 of IC50 given in µM.

Please review the entries below; each comes with its answer.
smiles.data: COc1ccc(-c2cn(C(C)=O)c(=O)n2-c2cc(OC)c(OC)c(OC)c2)cc1
assay.target: Bel-7402
log10 IC50: 0.98
--
smiles.data: COc1ccc(-c2cn(C(=O)Nc3cc(OC)c(OC)c(OC)c3)c(=O)n2-c2cc(OC)c(OC)c(OC)c2)cc1N
assay.target: Bel-7402
log10 IC50: 1.00
--
smiles.data: COc1cc(-n2c(-c3ccc(F)cc3F)cn(C(C)=O)c2=O)cc(OC)c1OC
assay.target: Bel-7402
log10 IC50: 1.56

stdin: Quote Bel-7402 log10 IC50 for entry `COc1ccc(-c2cn(C(C)=O)c(=O)n2-c2cc(OC)c(OC)c(OC)c2)cc1[N+](=O)[O-]` .
stdout: 1.55

stdin: State the measured log10 IC50 (Bel-7402) of `COc1ccc(-c2cn(C(C)=O)c(=O)n2-c2cc(OC)c(OC)c(OC)c2)cc1N`
stdout: -0.22

stdin: Enter measured log10 IC50, system Bel-7402, for the compound shown: `COc1cc(-n2c(-c3ccc(Br)cc3)cn(C(C)=O)c2=O)cc(OC)c1OC`
stdout: 0.08

---

Tested on: K562
Experiment: Cytotoxicity against human K562 cells after 48 hrs by MTT assay
Assay type: functional, cell-based
Conditions: K562, 48 h
# if measured IC50 < 30 µM: condition met  # else: condition not met

Solved entries (count: 5):
smiles.data: COc1cc(-n2c(-c3ccc(Cl)cc3)cn(C(C)=O)c2=O)cc(OC)c1OC
label.class: condition not met
//
smiles.data: COc1cc(NC(=O)n2cc(-c3ccc(O)cc3)n(-c3cc(OC)c(OC)c(OC)c3)c2=O)cc(OC)c1OC
label.class: condition met
//
smiles.data: COc1cc(-n2c(-c3ccc(O)cc3)c[nH]c2=O)cc(OC)c1OC
label.class: condition not met
//
smiles.data: COc1cc(-n2c(-c3ccc([N+](=O)[O-])cc3)cn(C(C)=O)c2=O)cc(OC)c1OC
label.class: condition met
//
smiles.data: COc1ccc(-c2cn(C(C)=O)c(=O)n2-c2cc(OC)c(OC)c(OC)c2)cc1OC
label.class: condition not met

stdin: Does the reported IC50 of the following compound sit strictly below 30 µM? `COc1ccc(-c2cn(C(=O)Nc3cc(OC)c(OC)c(OC)c3)c(=O)n2-c2cc(OC)c(OC)c(OC)c2)cc1[N+](=O)[O-]`
stdout: condition met

stdin: Dear reviewer, please state whether `COc1cc(-n2c(-c3ccccc3)cn(C(C)=O)c2=O)cc(OC)c1OC` has IC50 strictly beneath 30 µM.
stdout: condition not met

stdin: Consider `COc1ccc(-c2cn(C(=O)Nc3cc(OC)c(OC)c(OC)c3)c(=O)n2-c2cc(OC)c(OC)c(OC)c2)cc1OC` . Does its IC50 lie strictly below 30 µM?
stdout: condition not met

stdin: Dear reviewer, please state whether `COc1ccc(-c2cn(C(C)=O)c(=O)n2-c2cc(OC)c(OC)c(OC)c2)cc1N` has IC50 strictly beneath 30 µM.
stdout: condition met

stdin: State whether 30 µM exceeds IC50 recorded for `COc1ccc(-c2cn(C(=O)Nc3cc(OC)c(OC)c(OC)c3)c(=O)n2-c2cc(OC)c(OC)c(OC)c2)cc1O` .
stdout: condition not met

---

Test system: MCF7
Assay: Cytotoxicity against human MCF7 cells after 48 hrs by MTT assay
Assay type: functional, cell-based
Conditions: MCF7, 48 h
pIC50: −log10 of the molar value.
parameter.measured: pIC50

smiles.data: COc1cc(-n2c(-c3ccc(Br)cc3)cn(C(C)=O)c2=O)cc(OC)c1OC
pIC50: 4.97
--
smiles.data: COc1ccc(-c2cn(C(=O)Nc3cc(OC)c(OC)c(OC)c3)c(=O)n2-c2cc(OC)c(OC)c(OC)c2)cc1N
pIC50: < 4.30
--
smiles.data: COc1ccc(-c2cn(C(C)=O)c(=O)n2-c2cc(OC)c(OC)c(OC)c2)cc1OC
pIC50: < 4.30

stdin: Read off the recorded pIC50 for `COc1ccc(-c2cn(C(C)=O)c(=O)n2-c2cc(OC)c(OC)c(OC)c2)cc1`
stdout: < 4.30

stdin: Determine its reported pIC50: `COc1cc(-n2c(-c3ccccc3)cn(C(C)=O)c2=O)cc(OC)c1OC`
stdout: < 4.30

stdin: Answer with the recorded pIC50 for the molecule listed here: `COc1cc(-n2c(-c3ccc([N+](=O)[O-])cc3)cn(C(C)=O)c2=O)cc(OC)c1OC`
stdout: < 4.30

stdin: For `COc1ccc(-c2cn(C(C)=O)c(=O)n2-c2cc(OC)c(OC)c(OC)c2)cc1N` , write its pIC50.
stdout: 4.36

---

Tested on: MCF7
Assay: Cytotoxicity against human MCF7 cells after 48 hrs by MTT assay
Assay type: functional, cell-based
Details: MCF7, 48 h
Each item that follows carries a reported IC50.

smiles.data: COc1ccc(-c2c[nH]c(=O)n2-c2cc(OC)c(OC)c(OC)c2)cc1N
assay.target: MCF7
IC50: > 50 µM
--
smiles.data: COc1cc(-n2c(-c3ccc(F)cc3F)cn(C(C)=O)c2=O)cc(OC)c1OC
assay.target: MCF7
IC50: 49.3 µM
--
smiles.data: COc1cc(-n2c(-c3ccc(O)cc3)c[nH]c2=O)cc(OC)c1OC
assay.target: MCF7
IC50: > 50 µM

stdin: For `COc1ccc(-c2cn(C(C)=O)c(=O)n2-c2cc(OC)c(OC)c(OC)c2)cc1[N+](=O)[O-]` , write its IC50.
stdout: > 50 µM

stdin: Look up and state reported IC50 for `CC(=O)O[C@@]12CO[C@@H]1C[C@H](O)[C@@]1(C)C(=O)[C@H](O)C3=C(C)[C@@H](OC(=O)[C@H](O)[C@@H](NC(=O)OC(C)(C)C)c4ccccc4)C[C@@](O)([C@@H](OC(=O)c4ccccc4)[C@H]21)C3(C)C`
stdout: 4 µM

stdin: Using the record for `COc1ccc(-c2cn(C(=O)Nc3cc(OC)c(OC)c(OC)c3)c(=O)n2-c2cc(OC)c(OC)c(OC)c2)cc1` , state its measured IC50.
stdout: > 50 µM

stdin: Please report the measured IC50 for `COc1cc(NC(=O)n2cc(-c3ccc(O)cc3)n(-c3cc(OC)c(OC)c(OC)c3)c2=O)cc(OC)c1OC`
stdout: > 50 µM

stdin: Write down IC50 measured for item `COc1ccc(-c2cn(C(=O)Nc3cc(OC)c(OC)c(OC)c3)c(=O)n2-c2cc(OC)c(OC)c(OC)c2)cc1OC`
stdout: > 50 µM
